Hey, just so you know, these numbers are from the METLIN SMRT retention time set (Domingo-Almenara et al. 2019).

Procedure Details: gradient 5% acetonitrile 3 min, to 50% in 2 min, to 85% in 15 min, held 3 min, 100 µL/min
Test Conditions: column: Zorbax Extend-C18 2.1 x 50 mm; eluents: water / acetonitrile, 0.1% formic acid
With a cut-off of 800 s, any RP-LC retention time strictly below it is called Criterion met; any RP-LC retention time meeting it or above is called Criterion not met.

{"Molecule": "Cc1ccc(-c2csc(NC(=O)COc3cc(C)cc(C)c3)n2)cc1", "Discrete Label": "Criterion not met"}
{"Molecule": "O=C(Cc1ccccc1F)N1CCC(Nc2ncnc3c2CCC3)C1 (stereo not given)", "Discrete Label": "Criterion met"}
{"Molecule": "COCC(=O)N1CCc2c([nH]c3ccccc23)C1c1ccc(SC)cc1 (stereo not given)", "Discrete Label": "Criterion not met"}
{"Molecule": "Cc1ccc(CNC(=O)CN2C(=O)C3CCCCN3c3ccc(S(=O)(=O)N4CCCC4)cc32)o1 (stereo not given)", "Discrete Label": "Criterion not met"}
{"Molecule": "CC(C)NC(=O)N1CCC2(CC1)C(=O)N(C)c1ccccc12", "Discrete Label": "Criterion met"}
{"Molecule": "CCCn1c(-c2cccc(C(=O)NCc3ccncc3)c2)nc2cccnc21", "Discrete Label": "Criterion met"}
{"Molecule": "O=C(CN1C(=O)CC(c2cccs2)=Nc2ccccc21)Nc1ccccc1F", "Discrete Label": "Criterion not met"}
{"Molecule": "CCNC(=O)c1sc(-c2ccc(C)cc2)nc1C", "Discrete Label": "Criterion not met"}
{"Molecule": "CC(C)n1c(=O)sc2cc(S(=O)(=O)N3CCC(C(=O)NCc4cccs4)CC3)ccc21", "Discrete Label": "Criterion not met"}
{"Molecule": "CCCN1CCN(C(=O)c2c(C)sc3ccn(CC(C)C)c(=O)c23)CC1", "Discrete Label": "Criterion met"}
{"Molecule": "CCC(C)NC(=O)Cn1c(=O)n(CC(C)C)c(=O)c2nscc21 (stereo not given)", "Discrete Label": "Criterion met"}
{"Molecule": "CCC(C)NC(=O)Cn1cccc(-c2nc(-c3ccc(Cl)cc3)no2)c1=O (stereo not given)", "Discrete Label": "Criterion not met"}
{"Molecule": "Cc1cccc(NC(=O)c2cc(C(C)(C)C)n3nccc3n2)c1", "Discrete Label": "Criterion not met"}
{"Molecule": "CCCN1C(=O)COc2ccc(-c3csc(NC(=O)/C=C/c4ccc(OCC)c(OC)c4)n3)cc21", "Discrete Label": "Criterion not met"}
{"Molecule": "CCOc1ccc(-c2cc3c(=O)n(Cc4nc(-c5ccc(F)c(Cl)c5)no4)ncn3n2)cc1", "Discrete Label": "Criterion not met"}
{"Molecule": "CCOc1cc(=O)n2c(c1C(=O)N1CCCCCC1)CCCCC2", "Discrete Label": "Criterion met"}
